# Tested on: HEK293 cells
# METHOD_DESCRIPTION: HEK293 cell viability assay (CellTiter-Glo)
# Format: cell-based
# CONDITION: Homo sapiens, HEK293, 72 h, 3-day exposure, 0 to 10 μM
Each entry below lists one item and its recorded IC50 value.
Record the value in nM, omitting the unit from your answer.

Below, each entry is followed by its recorded IC50 result.
>  <MOLECULE>
CN1CCc2c(cc(-c3cnc4[nH]cc(-c5ccc(C(=O)N(C)C)cc5)c4n3)cc2C(F)F)C1 [Example 95]

>  <IC50 (nM)>
5180

$$$$
>  <MOLECULE>
COc1cc(-c2cnc3[nH]cc(-c4ccc(C(=O)N(C)C[C@H](C)O)cc4)c3n2)cc2c1CN(C)CC2 [Example 3]

>  <IC50 (nM)>
1270

$$$$
>  <MOLECULE>
COc1cc(-c2cnc3[nH]cc(-c4ccc(C(=O)N(C)C[C@@H](C)O)cc4)c3n2)cc2c1CN(C)CC2 [Example 10]

>  <IC50 (nM)>
1420

$$$$
>  <MOLECULE>
CCN1CCc2c(C)cc(-c3cnc4[nH]cc(-c5ccc(C(=O)N(C)C)c(C)c5)c4n3)cc2C1 [Example 127]

>  <IC50 (nM)>
3130

$$$$

Kindly review the next molecule as well.
IN: So what's the measured IC50 for this one? COc1cc(-c2cnc3[nH]cc(-c4ccc(C(=O)N5CC6(COC6)C5)cc4)c3n2)cc2c1CN(C)CC2 [Example 15]
OUT: 1040

====

Each entry below lists one item and its recorded IC50 value.
# TESTED_TARGET: HPK1 kinase (aa1-346, Life Technologies) (Homo sapiens, UniProt Q92918)
# Sequence (Q92918 1-346): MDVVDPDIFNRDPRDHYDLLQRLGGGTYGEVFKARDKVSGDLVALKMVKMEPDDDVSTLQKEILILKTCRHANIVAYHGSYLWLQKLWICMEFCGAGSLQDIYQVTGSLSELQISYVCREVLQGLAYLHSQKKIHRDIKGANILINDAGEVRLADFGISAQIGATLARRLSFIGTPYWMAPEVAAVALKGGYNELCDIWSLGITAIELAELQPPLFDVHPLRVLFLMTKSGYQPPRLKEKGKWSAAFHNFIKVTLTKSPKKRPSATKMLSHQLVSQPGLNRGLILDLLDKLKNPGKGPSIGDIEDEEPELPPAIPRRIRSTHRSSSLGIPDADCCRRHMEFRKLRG
Record the value in µM, omitting the unit from your answer.

IN: Form field: IC50 recorded for COc1cc(-c2cnc3[nH]cc(-c4cc(F)c(C(=O)N(C)C[C@H]5CCOC5)c(F)c4)c3n2)cc2c1CN(C)CC2 [Example 7B] with HPK1 kinase (aa1-346, Life Technologies) (Homo sapiens, UniProt Q92918) (enter value)
OUT: 0.031

IN: Item: COc1cc(-c2cnc3[nH]cc(-c4cc(F)c(C(=O)N(C)C[C@@H]5CCOC5)c(F)c4)c3n2)cc2c1CN(C)CC2 [Example 7A]
OUT: 0.034

IN: Item: Cc1cc(-c2cnc3[nH]cc(-c4ccc(C(=O)N(C)C[C@@H](C)O)cc4)c3n2)cc2c1CCN(C)C2 [Example 8]
OUT: 0.036

IN: Item: COCCCNC(=O)CN1CCc2c(C)cc(-c3cnc4[nH]cc(-c5ccc(C(=O)N(C)C)c(C)c5)c4n3)cc2C1 [Example 52]
OUT: 0.074
